Data origin, for the record: patent US20180148477A1

# Lookup of reported pIC50 keyed by entry
# assayTarget: human α4β7 integrin on cells (human) (UniProt P13612)
# test: RPMI8866 adhesion to MAdCAM-1
pIC50: −log10 of the molar value. Bridge positions count the residues as written; N and C are the ends. Square brackets hold non-standard residues; d marks the D form. Ends that are not written are not given here. 2Nal = N[C@@H](Cc1ccc2ccccc2c1)C(=O)O; NMeR = CN[C@@H](CCCNC(=N)N)C(=O)O; Pen = CC(C)(S)[C@H](N)C(=O)O; Dab = NCC[C@H](N)C(=O)O

{"columns": ["binder", "pIC50"],
 "data": [
  ["Ac-[Pen][NMeR]SDTL[Pen][2Nal][dF][dK]-NH2 (disulfide 1-7 (inferred); also: homodimer via DIG) [SEQ ID NO: 117]", "< 7.00"],
  ["Ac-[Pen][NMeR]SDTL[Pen]W[dE][Dab] (disulfide 1-7; also: C-terminus written Dab-Ac, acetyl place unclear) [SEQ ID NO: 64]", "< 6.00"],
  ["Ac-[Pen][NMeR]SDTF[Pen][2Nal][dE]-NH2 (disulfide 1-7; SMILES CC(=O)N[C@@H]1C(=O)N(C)[C@@H](CCCNC(=N)N)C(=O)N[C@@H](CO)C(=O)N[C@@H](CC(=O)O)C(=O)N[C@@H]([C@@H](C)O)C(=O)N[C@@H](Cc2ccccc2)C(=O)N[C@H](C(=O)N[C@@H](Cc2ccc3ccccc3c2)C(=O)N[C@H](CCC(=O)O)C(N)=O)C(C)(C)SSC1(C)C) [SEQ ID NO: 162]", "< 6.00"]
]}
